- SETTINGS: mouse, in vivo, iv, Biodistribution Lung, Control
READOUT_LABEL: tissue uptake at 1 h (%ID/g)
Number in %ID/g, nothing else.

Q. Field request: tissue uptake at 1 h | item: C[C@@H](O)[C@H](NC(=O)[C@@H]1CSSC[C@H](NC(=O)[C@@H](Cc2ccccc2)NC(=O)CN2CCN(CC(=O)O)CCN(CC(=O)O)CCN(CC(=O)O)CC2)C(=O)N[C@@H](Cc2ccc(O)cc2)C(=O)N[C@H](Cc2c[nH]c3ccccc23)C(=O)N[C@@H](CCCCN)C(=O)N[C@@H]([C@@H](C)O)C(=O)N1)C(=O)O [[^68Ga]DOTATATE, [^68Ga]DOTA-Tyr^3-octreotate, metal not drawn]
A. 8.4

====

- TEST_DESCRIPTION: Biodistribution in AR42J tumor-bearing nude mice
- SETTINGS: mouse, in vivo, iv, Biodistribution Liver, Control, 60 min p.i., tracer only, n = 5
READOUT_LABEL: tissue uptake at 1 h (%ID/g)
Number in %ID/g, nothing else.

Q. Field request: tissue uptake at 1 h | item: C[C@@H](O)[C@H](NC(=O)[C@@H]1CSSC[C@H](NC(=O)[C@@H](Cc2ccccc2)NC(=O)CN2CCN(CC(=O)O)CCN(CC(=O)O)CCN(CC(=O)O)CC2)C(=O)N[C@@H](Cc2ccc(O)cc2)C(=O)N[C@H](Cc2c[nH]c3ccccc23)C(=O)N[C@@H](CCCCN)C(=O)N[C@@H]([C@@H](C)O)C(=O)N1)C(=O)O [[^68Ga]DOTATATE, [^68Ga]DOTA-Tyr^3-octreotate, metal not drawn]
A. 0.5

====

- TEST_DESCRIPTION: Biodistribution in AR42J tumor-bearing nude mice
- SETTINGS: mouse, pancreas, intravenous, Biodistribution Pancreas, Competition, 60 min p.i., coinjection of 20 μg/mouse unlabeled TOC, n = 3
READOUT_LABEL: tissue uptake at 1 h (%ID/g)
Number in %ID/g, nothing else.

Q. Field request: tissue uptake at 1 h | item: C[C@@H](O)[C@H](NC(=O)[C@@H]1CSSC[C@H](NC(=O)[C@@H](Cc2ccccc2)NC(=O)CN2CCN(CC(=O)O)CCN(CC(=O)O)CCN(CC(=O)O)CC2)C(=O)N[C@@H](Cc2ccc(O)c(I)c2)C(=O)N[C@H](Cc2c[nH]c3ccccc23)C(=O)N[C@@H](CCCCN)C(=O)N[C@@H]([C@@H](C)O)C(=O)N1)C(=O)O [[^68Ga]HA-DOTATATE, [^68Ga]DOTA-3-iodo-Tyr^3-octreotate, metal not drawn]
A. 1.5

====

- TEST_DESCRIPTION: Biodistribution in AR42J tumor-bearing nude mice
- SETTINGS: mouse, lung, intravenous, Biodistribution Lung, Competition, 60 min p.i., coinjection of 20 μg/mouse unlabeled TOC, n = 3
READOUT_LABEL: tissue uptake at 1 h (%ID/g)
Number in %ID/g, nothing else.

Q. Field request: tissue uptake at 1 h | item: C[C@@H](O)[C@H](NC(=O)[C@@H]1CSSC[C@H](NC(=O)[C@@H](Cc2ccccc2)NC(=O)CN2CCN(CC(=O)O)CCN(CC(=O)O)CCN(CC(=O)O)CC2)C(=O)N[C@@H](Cc2ccc(O)c(I)c2)C(=O)N[C@H](Cc2c[nH]c3ccccc23)C(=O)N[C@@H](CCCCN)C(=O)N[C@@H]([C@@H](C)O)C(=O)N1)C(=O)O [[^68Ga]HA-DOTATATE, [^68Ga]DOTA-3-iodo-Tyr^3-octreotate, metal not drawn]
A. 2.5

Taken from paper PMC4402678.
